- method.notes: GSK2256098 pharmacokinetics, dry blood spot, Day 15
- Type: in vivo
- cond: human, oral, GSK2256098 250 mg (n = 6) with trametinib, read-out: Cmax, Geometric mean (%CV)
measured.property: Cmax (ng/mL)
Value expressed in ng/mL; do not type the unit.

Given item CONC(=O)c1ccccc1Nc1cc(Nc2cc(C)nn2C(C)C)ncc1Cl , the value recorded as its Cmax is 1230

====

- method.notes: GSK2256098 pharmacokinetics, whole blood, Day 15
- Format: in vivo, human
- cond: human, oral; GSK2256098 250 mg (n = 10) with trametinib, whole blood, Day 15; read-out: Cmax, Geometric mean (%CV)
measured.property: Cmax (ng/mL)
Value expressed in ng/mL; do not type the unit.

Given item CONC(=O)c1ccccc1Nc1cc(Nc2cc(C)nn2C(C)C)ncc1Cl [GSK2256098] , the value recorded as its Cmax is 1400

====

- method.notes: GSK2256098 pharmacokinetics, whole blood, Day 15
- Assay type: in vivo, human
- cond: human, oral; GSK2256098 250 mg (n = 10) with trametinib, whole blood, Day 15; read-out: tmax, Median (range)
measured.property: Tmax (h)
Value expressed in h; do not type the unit.

Given item CONC(=O)c1ccccc1Nc1cc(Nc2cc(C)nn2C(C)C)ncc1Cl , the value recorded as its Tmax is 2

====

- method.notes: GSK2256098 pharmacokinetics, whole blood, Day 15
- Type: in vivo, human
- cond: human, oral; GSK2256098 500 mg (n = 21) with trametinib, whole blood, Day 15; read-out: Cmax, Geometric mean (%CV)
measured.property: Cmax (ng/mL)
Value expressed in ng/mL; do not type the unit.

Given item CONC(=O)c1ccccc1Nc1cc(Nc2cc(C)nn2C(C)C)ncc1Cl , the value recorded as its Cmax is 2450

The measurements presented in this section are drawn from paper PMC6735221.
